target: SpHof1-2; assay: SPOT peptide array binding signal intensity (averaged, normalized) (arbitrary units (background-subtracted, floor 0; scale differs between SH3 domains)); higher = stronger binding of the SH3 domain to the peptide
Below: a set of entries, each annotated with reported SPOT peptide array binding signal intensity.
When you answer, write just the number.

Study these solved cases before continuing.
Lookup result for `RRGPAPPPPPRASRP` ; measured SPOT peptide array binding signal intensity: 27.8

Lookup result for `NIKVLLNPKLGKPVK` ; measured SPOT peptide array binding signal intensity: 13

Lookup result for `GQYRRTIVIPRRFFT` ; measured SPOT peptide array binding signal intensity: 50

Attention now shifts to the item below.
Lookup result for `RKQRSIPLSPIVPES` ; measured SPOT peptide array binding signal intensity: 2.25
